- System: human HER2 mRNA
- assay_procedure: Down-regulation of HER2 mRNA in transfected 15PC3 cells, real-time PCR
- Assay type: cell-based
- test_settings: 25 nM
In the oligonucleotide strings, read from the 5' end, every base follows the letter of its sugar. An asterisk marks phosphorothioate; unmarked linkages are phosphodiester. Other units and linkages are bracketed, terminal groups are in braces. A string of capitals states the bases alone. l = locked nucleic acid (LNA); [5mC] = 5-methylcytosine; d = 2'-deoxy (DNA)
reported_endpoint: HER2: percentage down-regulation of mRNA relative to mock transfected cells (%)
Form entry: value (%) — number only.

Form field: HER2: percentage down-regulation of mRNA relative to mock transfected cells recorded for ASTSASgScStScScSaSgSaScSaSTSCSA (antisense lA*lT*lA*dG*dC*dT*dC*dC*dA*dG*dA*dC*dA*lT*l[5mC]*lA) [SEQ ID NO: 173, β-D-oxy-LNA/DNA phosphorothioate gapmer antisense oligonucleotide targeting HER3] with human HER2 mRNA (enter value) 39.2

Form field: HER2: percentage down-regulation of mRNA relative to mock transfected cells recorded for CSASTSgStSaSgSaScSaStScSaSASTST (l[5mC]*lA*lT*dG*dT*dA*dG*dA*dC*dA*dT*dC*dA*lA*lT*lT; antisense) [SEQ ID NO: 179] with human HER2 mRNA (enter value) 75.6

Form field: HER2: percentage down-regulation of mRNA relative to mock transfected cells recorded for ASGSAScSaStScSaScStScStSgSGSTSG (antisense lA*lG*lA*dC*dA*dT*dC*dA*dC*dT*dC*dT*dG*lG*lT*lG) [SEQ ID NO: 172, β-D-oxy-LNA/DNA phosphorothioate gapmer antisense oligonucleotide targeting HER3] with human HER2 mRNA (enter value) 61

Form field: HER2: percentage down-regulation of mRNA relative to mock transfected cells recorded for ASTSCScSaSaScSaScStStSgSaSCSCSA (antisense lA*lT*l[5mC]*dC*dA*dA*dC*dA*dC*dT*dT*dG*dA*l[5mC]*l[5mC]*lA) [SEQ ID NO: 176, β-D-oxy-LNA/DNA phosphorothioate gapmer antisense oligonucleotide targeting HER3] with human HER2 mRNA (enter value) 74.8

Form field: HER2: percentage down-regulation of mRNA relative to mock transfected cells recorded for CSASGSaScSaStScSaScStScStSGSGST (antisense l[5mC]*lA*lG*dA*dC*dA*dT*dC*dA*dC*dT*dC*dT*lG*lG*lT) [SEQ ID NO: 171, β-D-oxy-LNA/DNA phosphorothioate gapmer antisense oligonucleotide targeting HER3] with human HER2 mRNA (enter value) 2.8

Form field: HER2: percentage down-regulation of mRNA relative to mock transfected cells recorded for CSASTScScSaSaScSaScStStSgSASCSC (antisense l[5mC]*lA*lT*dC*dC*dA*dA*dC*dA*dC*dT*dT*dG*lA*l[5mC]*l[5mC]) [SEQ ID NO: 175, β-D-oxy-LNA/DNA phosphorothioate gapmer antisense oligonucleotide targeting HER3] with human HER2 mRNA (enter value) 76.9

Form field: HER2: percentage down-regulation of mRNA relative to mock transfected cells recorded for TSCSAScSaScScSaStSaSgScStSCSCSA (antisense lT*l[5mC]*lA*dC*dA*dC*dC*dA*dT*dA*dG*dC*dT*l[5mC]*l[5mC]*lA) [SEQ ID NO: 174, β-D-oxy-LNA/DNA phosphorothioate gapmer antisense oligonucleotide targeting HER3] with human HER2 mRNA (enter value) 94.8
